test system: 786-0 renal; assay: NCI tumour cell line growth inhibition, 48 h
METRIC NAME: TGI

Example results:
{"COMPOUND": "C=C(C=O)c1c2c(nc3ccccc13)C(=O)c1ccccc1C2=O", "TGI": "> 100 µM"}
{"COMPOUND": "CCc1c2c(nc3cc4c(cc13)OCO4)-c1cc3c(c(=O)n1C2)COC(=O)[C@@]3(CC)OC(=O)CN", "TGI": "< 0.0127 µM"}
{"COMPOUND": "O=C1/C(=C/c2ccccc2Cl)N=C(c2ccccc2)N1Cc1ccco1", "TGI": "> 100 µM"}
{"COMPOUND": "CC(=O)OCC1OC(n2c(N)c(C#N)c(-c3ccccc3)c(C#N)c2=S)C(OC(C)=O)C(OC(C)=O)C1OC(C)=O (stereo not given)", "TGI": "> 86.4 µM"}

Which TGI reading was recorded for the compound CC1C(c2ccc3c(c2)OCO3)c2cc3c(cc2OC1N1CCCC1)OCO3 (stereo not given) ?
> 100 µM

----------
test system: SNB-19 CNS; experiment: NCI tumour cell line growth inhibition, 48 h
METRIC NAME: GI50

Example entries begin here.
{"SMILES STRUCTURE": "CS(=O)(=O)CCNCc1ccc(-c2ccc3ncnc(Nc4ccc(OCc5cccc(C(F)(F)F)c5)cc4)c3c2)o1", "TARGET OR TEST SYSTEM": "SNB-19 CNS", "GI50": "11.3 µM"}
{"SMILES STRUCTURE": "COC(=O)CCC(=O)c1c(C)[nH]c(/C=C2\\N=C(c3ccc[nH]3)C=C2OC)c1C", "TARGET OR TEST SYSTEM": "SNB-19 CNS", "GI50": "3.2 µM"}
{"SMILES STRUCTURE": "CCCN(CCC)c1ccc(CO)c(C)c1", "TARGET OR TEST SYSTEM": "SNB-19 CNS", "GI50": "> 100 µM"}

Looking for the measured GI50 of CN1CCN(c2ccc3c4c(cccc24)C(=O)N(CCN2CCN(CCCN4CCN(CCN5C(=O)c6cccc7c(N8CCN(C)CC8)ccc(c67)C5=O)CC4)CC2)C3=O)CC1 , can you help?
7.03 µM

Repeat for the following compound: COc1ccc2c(c1)c(C1(c3cn(C)c4ccc(OC)cc34)C(=O)Nc3ccc(F)cc31)cn2C
12.2 µM

// same read-out, input: CCCCCCCCCCCCCCCc1cc(O)ccc1N
> 100 µM

----------
test system: UO-31 renal; assay: NCI tumour cell line growth inhibition, 48 h
METRIC NAME: GI50

Please review the following examples before continuing.
{"COMPOUND": "CC1(C)N=C(N)N=C(N)N1c1ccc(F)c(C(F)(F)F)c1", "GI50": "8.86 µM"}
{"COMPOUND": "CC(ONC(=O)c1cc(C(F)(F)F)cc(C(F)(F)F)c1)C(=O)Nc1ccc(Cl)cc1 (centres undefined)", "GI50": "4.85 µM"}
{"COMPOUND": "COc1ccc2[nH]cc(-c3nc(-c4cn(C)c5ccncc45)cs3)c2c1", "GI50": "1.8 µM"}
{"COMPOUND": "CCC[C@H](N[C@@H]1CCc2cc(F)cc(F)c2C1)C(=O)Nc1cn(C(C)(C)CNCC(C)(C)C)cn1", "GI50": "6.33 µM"}
{"COMPOUND": "CCCCCCCCCCCCCCCc1cc(O)ccc1N", "GI50": "0.685 µM"}

Using the record for CCN(CC)CCOc1ccc(/C=C2\CC3C4CCC5=CC(=O)CC[C@]5(C)C4CC[C@]3(C)C2=O)cc1OC (some centres undefined) , report its GI50.
0.701 µM

Further, for COCCOC(=O)C1=C(C)NC2=C(C(=O)CC(c3ccccc3OC)C2)C1c1cccc(O)c1 (centres undefined) ?
3.62 µM

One more compound: COC(CCP(=O)(c1ccccc1)c1ccccc1)(C(=O)c1ccccc1)c1ccccc1 (centres undefined)
2.46 µM

Then N#Cc1ccccc1C#C/C=C\C#Cc1ccc(OCCCNC(=O)c2cc3ccccc3[nH]2)cc1 ?
17 µM

CN1CCN(c2ccc3nc(-c4cc(C(C)(C)C)c(O)c(C(C)(C)C)c4)[nH]c3c2)CC1 , same question.
1.7 µM

Same thing, different compound: C(=C1c2ccccc2-c2ccccc21)c1ccccn1
8.64 µM

Next: Nc1cc(-c2ccccc2)ccc1O
34 µM

Entry to check: O=C(Nc1ccc(Br)cc1)Nc1n[nH]c2ccccc12
25.8 µM

Repeat for the following compound: CCOC(=O)CC1(O)C=CC(=O)C=C1
2.41 µg/mL

----------
tested on: OVCAR-5 ovarian; experiment: NCI tumour cell line growth inhibition, 48 h; in the data active means GI50 below about 0.43 µM; inactive means the rest
# output must be one of active, inactive

{"COMPOUND": "CCC(Sc1nnc2c3ccccc3n(CC)c2n1)C(=O)Nc1ccccc1OC (stereo not drawn)", "TARGET OR TEST SYSTEM": "OVCAR-5 ovarian", "CLASSIFICATION": "inactive"}
{"COMPOUND": "COc1cnc2c(c1)C(=O)c1c-2n(CCCn2ccnc2)c(=O)c2cc(Cl)ccc12", "TARGET OR TEST SYSTEM": "OVCAR-5 ovarian", "CLASSIFICATION": "active"}
{"COMPOUND": "COc1ccc2[nH]cc(-c3nc(-c4cn(C)c5ccncc45)cs3)c2c1", "TARGET OR TEST SYSTEM": "OVCAR-5 ovarian", "CLASSIFICATION": "inactive"}
{"COMPOUND": "Cn1c(=O)cc2c3c(c(NCCCO)ccc31)C(=O)c1ccccc1-2", "TARGET OR TEST SYSTEM": "OVCAR-5 ovarian", "CLASSIFICATION": "inactive"}

Test call for this compound, please: CCC[C@H](N[C@@H]1CCc2cc(F)cc(F)c2C1)C(=O)Nc1cn(C(C)(C)CNCC(C)(C)C)cn1
inactive

Request: CC(ONC(=O)c1cc(C(F)(F)F)cc(C(F)(F)F)c1)C(=O)Nc1ccc(Cl)cc1 (stereo not drawn)
inactive

What do we get for CCN(CC)CCOc1ccc(/C=C2\CC3C4CCC5=CC(=O)CC[C@]5(C)C4CC[C@]3(C)C2=O)cc1OC (stereo partly drawn) ?
inactive

Same read-out for CCCCC(=O)N/N=C/c1cc(I)cc(I)c1O ?
inactive

Next record, please: CC(=O)/C=C/C1=C(c2cc3ccccc3s2)c2ccccc2CC1
inactive

Try this compound next: CC(C)(C)c1ccc([I+]c2ccc(C(C)(C)C)cc2)cc1
inactive

Item: COc1ccc(O)c(C(=O)c2ccc(C(=O)O[C@@H]3CCCNC[C@H]3NC(=O)c3ccncc3)cc2)c1F
inactive

And CN1C(=O)CNC(=O)[C@H](NC(=O)c2nc3ccccc3cc2O)CSSC[C@H]1C(=O)NCCc1nc2ccccc2cc1O ?
inactive

Note, next up: CCN(CC)c1ccc2c(c1)Oc1nc(N)c(C#N)c(N)c1C2Sc1ccc(SC)cc1 (stereo not drawn)
inactive

----------
TGI listing for selected compounds.
system: HT29 colon; assay: NCI tumour cell line growth inhibition, 48 h
Record the value in µM, omitting the unit from your answer.

{"COMPOUND": "CC(C)CCC1(O)O[C@H]2C[C@H]3[C@@H]4CCC5CC(=O)C=C[C@]5(C)[C@H]4CC[C@]3(C)[C@H]2[C@@H]1C (some centres undefined)", "TARGET OR TEST SYSTEM": "HT29 colon", "RECORDED VALUE": 26.9}

Now take the following compound into account.
Query: TGI; subject: CC(C)C(C/C=C1/CC(CO)(COC(=O)CC(C(C)C)C(C)C)OC1=O)C(C)C (centres undefined)
30.5

----------
test system: SF-539 CNS; assay: NCI tumour cell line growth inhibition, 48 h
# maps each entry to its log10 of TGI
Remember, log10 of TGI, in µM.

{"MOLECULE": "O=C(COc1cccc(/C=C2\\COc3ccccc3C2=O)c1)Nc1nccs1", "log10 of TGI": 1.49}
{"MOLECULE": "CC(=O)/C=C/C1=C(c2cc3ccccc3s2)c2ccccc2CC1", "log10 of TGI": 1.81}
{"MOLECULE": "CN1C(=O)CNC(=O)[C@H](NC(=O)c2nc3ccccc3cc2O)CSSC[C@H]1C(=O)NCCc1nc2ccccc2cc1O", "log10 of TGI": 1.59}
{"MOLECULE": "CC(ONC(=O)c1cc(C(F)(F)F)cc(C(F)(F)F)c1)C(=O)Nc1ccc(Cl)cc1 (configuration not stated)", "log10 of TGI": 1.28}

With those in mind, consider the next molecule.
Query the reported log10 of TGI for SF-539 CNS; item: COc1cc(-c2[nH]ccc2Cl)oc1C1=C2N=C3C=C2C(C(C)C)C1CCCCCCCC3 (configuration not stated)
0.39

----------
tested on: 786-0 renal; assay: NCI tumour cell line growth inhibition, 48 h; in the data active = GI50 below about 0.43 µM; inactive = the rest
Response enum: class 1 (active), class 0 (inactive)

{"COMPOUND": "O=C(Nc1ccc(Br)cc1)Nc1n[nH]c2ccccc12", "CLASSIFICATION": "class 0"}
{"COMPOUND": "[Cu+2].[O-]c1ccc2ccccc2c1N=Nc1ccccc1.[O-]c1ccc2ccccc2c1N=Nc1ccccc1", "CLASSIFICATION": "class 0"}

Kindly provide the recorded test outcome for the following compound: CN1CCN(c2ccc3nc(-c4cc(C(C)(C)C)c(O)c(C(C)(C)C)c4)[nH]c3c2)CC1
class 0

Also, COC(CCP(=O)(c1ccccc1)c1ccccc1)(C(=O)c1ccccc1)c1ccccc1 (configuration not stated) please.
class 0

Please do the same for O=C(Nc1cc(C(F)(F)F)ccc1F)Nc1n[nH]c2ccccc12 as well.
class 0

Another compound: CCc1c2c(nc3cc4c(cc13)OCO4)-c1cc3c(c(=O)n1C2)COC(=O)[C@@]3(CC)OC(=O)CN
class 1

Cool, now CN1CCN(c2ccc3c4c(cccc24)C(=O)N(CCN2CCN(CCCN4CCN(CCN5C(=O)c6cccc7c(N8CCN(C)CC8)ccc(c67)C5=O)CC4)CC2)C3=O)CC1
class 0
